Origin of values: patent US11395857B2

# experiment-description: Biodistribution of 177Lu-labeled αMSH analogues in mice bearing SK-MEL-1 human melanoma
# experimental-parameters: male, NRG (NOD.Cg-Rag1tm1Mom Il2rgtm1Wjl/SzJ), mouse, urine, total radioactivity
property-measured: excreta dose per gram or mL at 120 h (%ID/g)
Report only the number, with the unit %ID/g understood.

Query block: So what's the measured excreta dose per gram or mL at 120 h for this one? CCCC[C@H](NC(=O)CN1CCC(NC(=O)[C@H](CCCCNC(=O)CN2CCN(CC(=O)O)CCN(CC(=O)O)CCN(CC(=O)O)CC2)NC(=O)CNC(=O)CCCc2ccc(I)cc2)CC1)C(=O)N[C@H]1CC(=O)NCCCC[C@@H](C(N)=O)N(C)C(=O)[C@H](Cc2c[nH]c3ccccc23)NC(=O)[C@H](CCCNC(=N)N)N(C)C(=O)[C@@H](Cc2ccccc2)NC(=O)[C@H](Cc2c[nH]cn2)NC1=O [^177Lu-labeled CCZ01148, metal not drawn]
Result block: 6.46

Query block: So what's the measured excreta dose per gram or mL at 120 h for this one? CCCC[C@H](NC(=O)CN1CCC(NC(=O)[C@H](CCCCNC(=O)CN2CCN(CC(=O)O)CCN(CC(=O)O)CCN(CC(=O)O)CC2)NC(=O)CNC(=O)CCCc2ccc(-c3ccc(C)cc3)cc2)CC1)C(=O)N[C@H]1CC(=O)NCCCC[C@@H](C(N)=O)N(C)C(=O)[C@H](Cc2c[nH]c3ccccc23)NC(=O)[C@H](CCCNC(=N)N)N(C)C(=O)[C@@H](Cc2ccccc2)NC(=O)[C@H](Cc2c[nH]cn2)NC1=O [^177Lu-labeled CCZ01158, metal not drawn]
Result block: 3.56

Query block: So what's the measured excreta dose per gram or mL at 120 h for this one? CCCC[C@H](NC(=O)CN1CCC(NC(=O)[C@H](CCCCNC(=O)CN2CCN(CC(=O)O)CCN(CC(=O)O)CCN(CC(=O)O)CC2)NC(=O)[C@H](CCC(=O)O)NC(=O)CCCc2ccc(I)cc2)CC1)C(=O)N[C@H]1CC(=O)NCCCC[C@@H](C(N)=O)N(C)C(=O)[C@H](Cc2c[nH]c3ccccc23)NC(=O)[C@H](CCCNC(=N)N)N(C)C(=O)[C@@H](Cc2ccccc2)NC(=O)[C@H](Cc2c[nH]cn2)NC1=O [^177Lu-labeled CCZ01118, metal not drawn]
Result block: 1.12

* * *

# experiment-description: Biodistribution of 177Lu-labeled αMSH analogues in mice bearing B16F10 mouse melanoma
# Type: in vivo, C57BL/6J mice
# experimental-parameters: mouse, heart, iv, total radioactivity; 24 h p.i., C57BL/6J mice, B16F10 melanoma; read-out: Biodistribution, Heart
property-measured: tissue uptake at 24 h (%ID/g)
Report only the number, with the unit %ID/g understood.

Query block: So what's the measured tissue uptake at 24 h for this one? CCCC[C@H](NC(=O)CN1CCC(NC(=O)[C@H](CCCCNC(=O)CN2CCN(CC(=O)O)CCN(CC(=O)O)CCN(CC(=O)O)CC2)NC(=O)[C@H](CCC(=O)O)NC(=O)CCCc2ccc(I)cc2)CC1)C(=O)N[C@H]1CC(=O)NCCCC[C@@H](C(N)=O)N(C)C(=O)[C@H](Cc2c[nH]c3ccccc23)NC(=O)[C@H](CCCNC(=N)N)N(C)C(=O)[C@@H](Cc2ccccc2)NC(=O)[C@H](Cc2c[nH]cn2)NC1=O [^177Lu-labeled CCZ01118, metal not drawn]
Result block: 0.08

* * *

# experiment-description: Biodistribution of 177Lu-labeled αMSH analogues in mice bearing SK-MEL-1 human melanoma
# experimental-parameters: male, NRG (NOD.Cg-Rag1tm1Mom Il2rgtm1Wjl/SzJ), mouse, brain, total radioactivity
property-measured: tissue uptake at 120 h (%ID/g)
Report only the number, with the unit %ID/g understood.

Query block: So what's the measured tissue uptake at 120 h for this one? CCCC[C@H](NC(=O)CN1CCC(NC(=O)[C@H](CCCCNC(=O)CN2CCN(CC(=O)O)CCN(CC(=O)O)CCN(CC(=O)O)CC2)NC(=O)CNC(=O)CCCc2ccc(I)cc2)CC1)C(=O)N[C@H]1CC(=O)NCCCC[C@@H](C(N)=O)N(C)C(=O)[C@H](Cc2c[nH]c3ccccc23)NC(=O)[C@H](CCCNC(=N)N)N(C)C(=O)[C@@H](Cc2ccccc2)NC(=O)[C@H](Cc2c[nH]cn2)NC1=O [^177Lu-labeled CCZ01148, metal not drawn]
Result block: 0.13

Query block: So what's the measured tissue uptake at 120 h for this one? CCCC[C@H](NC(=O)CN1CCC(NC(=O)[C@H](CCCCNC(=O)CN2CCN(CC(=O)O)CCN(CC(=O)O)CCN(CC(=O)O)CC2)NC(=O)[C@H](CCC(=O)O)NC(=O)CCCc2ccc(I)cc2)CC1)C(=O)N[C@H]1CC(=O)NCCCC[C@@H](C(N)=O)N(C)C(=O)[C@H](Cc2c[nH]c3ccccc23)NC(=O)[C@H](CCCNC(=N)N)N(C)C(=O)[C@@H](Cc2ccccc2)NC(=O)[C@H](Cc2c[nH]cn2)NC1=O [^177Lu-labeled CCZ01118, metal not drawn]
Result block: 0.01

Query block: So what's the measured tissue uptake at 120 h for this one? CCCC[C@H](NC(=O)CN1CCC(NC(=O)[C@H](CCCCNC(=O)CN2CCN(CC(=O)O)CCN(CC(=O)O)CCN(CC(=O)O)CC2)NC(=O)CNC(=O)CCCc2ccc(-c3ccc(C)cc3)cc2)CC1)C(=O)N[C@H]1CC(=O)NCCCC[C@@H](C(N)=O)N(C)C(=O)[C@H](Cc2c[nH]c3ccccc23)NC(=O)[C@H](CCCNC(=N)N)N(C)C(=O)[C@@H](Cc2ccccc2)NC(=O)[C@H](Cc2c[nH]cn2)NC1=O [^177Lu-labeled CCZ01158, metal not drawn]
Result block: 0.03

* * *

# experiment-description: Biodistribution of 177Lu-labeled αMSH analogues in mice bearing B16F10 mouse melanoma
# Assay type: in vivo, C57BL/6J mice
# experimental-parameters: mouse, kidneys, iv, total radioactivity; 4 h p.i., C57BL/6J mice, B16F10 melanoma; read-out: Biodistribution, Kidneys
property-measured: tissue uptake at 4 h (%ID/g)
Report only the number, with the unit %ID/g understood.

Query block: So what's the measured tissue uptake at 4 h for this one? CCCC[C@H](NC(=O)CN1CCC(NC(=O)CN2CCN(CC(=O)O)CCN(CC(=O)O)CCN(CC(=O)O)CC2)CC1)C(=O)N[C@H]1CC(=O)NCCCC[C@@H](C(N)=O)NC(=O)[C@H](Cc2c[nH]c3ccccc23)NC(=O)[C@H](CCCNC(=N)N)NC(=O)[C@@H](Cc2ccccc2)NC(=O)[C@H](Cc2c[nH]cn2)NC1=O [^177Lu-labeled CCZ01048, metal not drawn, reference compound]
Result block: 4.89

Query block: So what's the measured tissue uptake at 4 h for this one? CCCC[C@H](NC(=O)CN1CCC(NC(=O)[C@H](CCCCNC(=O)CN2CCN(CC(=O)O)CCN(CC(=O)O)CCN(CC(=O)O)CC2)NC(=O)[C@H](CCC(=O)O)NC(=O)CCCc2ccc(I)cc2)CC1)C(=O)N[C@H]1CC(=O)NCCCC[C@@H](C(N)=O)N(C)C(=O)[C@H](Cc2c[nH]c3ccccc23)NC(=O)[C@H](CCCNC(=N)N)N(C)C(=O)[C@@H](Cc2ccccc2)NC(=O)[C@H](Cc2c[nH]cn2)NC1=O [^177Lu-labeled CCZ01118, metal not drawn]
Result block: 12.7

Query block: So what's the measured tissue uptake at 4 h for this one? CCCC[C@H](NC(=O)CN1CCC(NC(=O)CN2CCN(CC(=O)O)CCN(CC(=O)O)CCN(CC(=O)O)CC2)CC1)C(=O)N[C@H]1CC(=O)NCCCC[C@@H](C(N)=O)N(C)C(=O)[C@H](Cc2c[nH]c3ccccc23)N(C)C(=O)[C@H](CCCNC(=N)N)N(C)C(=O)[C@@H](Cc2ccccc2)NC(=O)[C@H](Cc2c[nH]cn2)N(C)C1=O [^177Lu-labeled CCZ01099, metal not drawn]
Result block: 4.32

* * *

# experiment-description: Biodistribution of 177Lu-labeled αMSH analogues in mice bearing B16F10 mouse melanoma
# Type: in vivo, C57BL/6J mice
# experimental-parameters: mouse, lungs, iv, total radioactivity; 4 h p.i., C57BL/6J mice, B16F10 melanoma; read-out: Biodistribution, Lungs
property-measured: tissue uptake at 4 h (%ID/g)
Report only the number, with the unit %ID/g understood.

Query block: So what's the measured tissue uptake at 4 h for this one? CCCC[C@H](NC(=O)CN1CCC(NC(=O)[C@H](CCCCNC(=O)CN2CCN(CC(=O)O)CCN(CC(=O)O)CCN(CC(=O)O)CC2)NC(=O)[C@H](CCC(=O)O)NC(=O)CCCc2ccc(I)cc2)CC1)C(=O)N[C@H]1CC(=O)NCCCC[C@@H](C(N)=O)N(C)C(=O)[C@H](Cc2c[nH]c3ccccc23)N(C)C(=O)[C@H](CCCNC(=N)N)N(C)C(=O)[C@@H](Cc2ccccc2)NC(=O)[C@H](Cc2c[nH]cn2)N(C)C1=O [^177Lu-labeled CCZ01088, metal not drawn]
Result block: 2.34

Query block: So what's the measured tissue uptake at 4 h for this one? CCCC[C@H](NC(=O)CN1CCC(NC(=O)[C@H](CCCCNC(=O)CN2CCN(CC(=O)O)CCN(CC(=O)O)CCN(CC(=O)O)CC2)NC(=O)[C@H](CCC(=O)O)NC(=O)CCCc2ccc(I)cc2)CC1)C(=O)N[C@H]1CC(=O)NCCCC[C@@H](C(N)=O)N(C)C(=O)[C@H](Cc2c[nH]c3ccccc23)NC(=O)[C@H](CCCNC(=N)N)N(C)C(=O)[C@@H](Cc2ccccc2)NC(=O)[C@H](Cc2c[nH]cn2)NC1=O [^177Lu-labeled CCZ01118, metal not drawn]
Result block: 2.34

Query block: So what's the measured tissue uptake at 4 h for this one? CCCC[C@H](NC(=O)CN1CCC(NC(=O)CN2CCN(CC(=O)O)CCN(CC(=O)O)CCN(CC(=O)O)CC2)CC1)C(=O)N[C@H]1CC(=O)NCCCC[C@@H](C(N)=O)N(C)C(=O)[C@H](Cc2c[nH]c3ccccc23)NC(=O)[C@H](CCCNC(=N)N)N(C)C(=O)[C@@H](Cc2ccccc2)NC(=O)[C@H](Cc2c[nH]cn2)NC1=O [^177Lu-labeled CCZ01106, metal not drawn]
Result block: 0.14

Query block: So what's the measured tissue uptake at 4 h for this one? CCCC[C@H](NC(=O)CN1CCC(NC(=O)[C@H](CCCCNC(=O)CN2CCN(CC(=O)O)CCN(CC(=O)O)CCN(CC(=O)O)CC2)NC(=O)[C@H](CCC(=O)O)NC(=O)CCCc2ccc(I)cc2)CC1)C(=O)N[C@H]1CC(=O)NCCCC[C@@H](C(N)=O)NC(=O)[C@H](Cc2c[nH]c3ccccc23)NC(=O)[C@H](CCCNC(=N)N)NC(=O)[C@@H](Cc2ccccc2)NC(=O)[C@H](Cc2c[nH]cn2)NC1=O [^177Lu-labeled CCZ01082, metal not drawn]
Result block: 2.46

Query block: So what's the measured tissue uptake at 4 h for this one? CCCC[C@H](NC(=O)CN1CCC(NC(=O)CN2CCN(CC(=O)O)CCN(CC(=O)O)CCN(CC(=O)O)CC2)CC1)C(=O)N[C@H]1CC(=O)NCCCC[C@@H](C(N)=O)N(C)C(=O)[C@H](Cc2c[nH]c3ccccc23)N(C)C(=O)[C@H](CCCNC(=N)N)N(C)C(=O)[C@@H](Cc2ccccc2)NC(=O)[C@H](Cc2c[nH]cn2)N(C)C1=O [^177Lu-labeled CCZ01099, metal not drawn]
Result block: 0.17
